Reference source: patent US20160355530A1

# Tested on: HCV 1b-BB7 subgenomic replicon
# experiment.summary: microbe, parasite or virus in culture
# Assay type: cell-based, HCV genotype 1b
# measurement.conditions: Hepatitis C virus, stable replicon, strain 1b BB7, 5% FBS; read-out: 1b BB7 5% FBS EC50
endpoint.name: pEC50
Please express pEC50 as -log10 of the molar concentration.

## Input For the compound shown here, CS(=O)(=O)N(CCCN1CCOCC1)c1cc2oc(-c3ccc(F)cc3)c(C3=NOCCN3)c2cc1C1CC1 , give the reported pEC50.
## Output 7.52

## Input Ok, now CS(=O)(=O)N(CCO)c1cc2oc(-c3ccc(F)cc3)c(-c3ncc[nH]3)c2cc1C1CC1
## Output 7.90

## Input Try this compound next: CN(C)CCCN(c1cc2oc(-c3ccc(F)cc3)c(C3=NOCCN3)c2cc1C1CC1)S(C)(=O)=O
## Output 7.68

## Input Item: CCCCN(c1cc2oc(-c3ccc(F)cc3)c(-c3ncc[nH]3)c2cc1C1CC1)S(C)(=O)=O
## Output 7.53

## Input Repeat for the following compound: CC(C)=CCCN(c1cc2oc(-c3ccc(F)cc3)c(-c3ncc[nH]3)c2cc1C1CC1)S(C)(=O)=O
## Output 7.57

## Input // query: CS(=O)(=O)N(CCN1CCCC1)c1cc2oc(-c3ccc(F)cc3)c(-c3ncc[nH]3)c2cc1C1CC1
## Output 7.43

## Input Let us now turn to CN(C)CCCN(c1cc2oc(-c3ccc(F)cc3)c(-c3ncc[nH]3)c2cc1C1CC1)S(C)(=O)=O
## Output 7.95
